Where these numbers come from: ChEMBL document CHEMBL1201862

System: SF-295
Assay: NCI tumour cell line growth inhibition, 48 h
The source made the active and inactive calls. Rule as the data show it: active = GI50 up to about 1.1 µM and inactive = higher.
Outcome (select one): 1 for active, 0 for inactive

QUERY: Recorded test outcome, item CC[C@H](C)[C@H]1NC(=O)[C@@H](NC(=O)[C@@H](CC(C)C)N(C)CC2CCCN2C(=O)C(C)=O)[C@@H](C)OC(=O)[C@H](Cc2ccc(OC)cc2)N(C)C(=O)C2CCCN2C(=O)[C@H](CC(C)C)NC(=O)[C@@H](C)C(=O)[C@H](C(C)C)OC(=O)C[C@@H]1O (stereo partly specified)
RESULT: 1

QUERY: Recorded test outcome, item COC(=O)C12C34C=CC5(CCC6(C=CC1(CC3)O6)C52C(=O)OC)O4 (stereo unspecified)
RESULT: 0

QUERY: Recorded test outcome, item COc1ccc(/C=C2\CN(C)CC3=C2OC(N)=C(C#N)C3c2ccc(OC)cc2)cc1 (stereo unspecified)
RESULT: 0

QUERY: Recorded test outcome, item `O=C(/C=C/c1ccc(OCc2ccccc2)cc1)NCc1ccc(C(=O)NCCc2ccccc2)cc1`
RESULT: 0

QUERY: Recorded test outcome, item `c1ccc(/N=C2/SC3=Nc4cccc5cccc(c45)N3/C2=N/c2ccccc2)cc1`
RESULT: 0

QUERY: Recorded test outcome, item `CCCCCCCCCCCCCCCCOC(=O)c1cc(O)cc(C(=O)OCCCCCCCCCCCCCCCC)c1`
RESULT: 0

QUERY: Recorded test outcome, item `O=C1NC2(NC(=O)C1=O)Nc1ccccc1S2`
RESULT: 0

QUERY: Recorded test outcome, item `CCOc1ccc2c(c1)C(/C(C(Cl)=C(Cl)Cl)=[N+](/[O-])OC(=O)c1ccccc1)=N2`
RESULT: 0

QUERY: Recorded test outcome, item `C1COCCSC2=C(SCCO1)SC(=C1SC3=C(SCCOCCOCCS3)S1)S2`
RESULT: 0

QUERY: Recorded test outcome, item CC1=NN(C(=O)CC(=O)NC(=O)CC(=O)Nc2ccccc2F)C(=O)C1/N=N/c1ccc([N+](=O)[O-])cc1 (stereo unspecified)
RESULT: 0

QUERY: Recorded test outcome, item `CC1=CC(C)(C)Nc2ccc(CSc3ccccc3)cc21`
RESULT: 0

---

Tested on: TK-10
Test: NCI tumour cell line growth inhibition, 48 h
Active and inactive are the calls of the source. No stated cut-off is given here; in the data, active = GI50 up to about 1.1 µM and inactive = higher.
For each entry below, report its GI50 value.

QUERY: So what does the record say about GI50 for `C[C@@H]1OC(=O)C[C@H]2CC(=O)N(CCc3cn(S(=O)(=O)C(F)(F)F)c4ccccc34)C[C@@H]21` ?
RESULT: > 100 µM (inactive)

QUERY: So what does the record say about GI50 for `CCCCCCCCCCCCCCCCOC(=O)c1cc(O)cc(C(=O)OCCCCCCCCCCCCCCCC)c1` ?
RESULT: > 100 µM (inactive)

QUERY: So what does the record say about GI50 for `Cn1c(=O)c(Br)c(C=O)n(CCO[N+](=O)[O-])c1=O` ?
RESULT: 3.86 µM (inactive)

QUERY: So what does the record say about GI50 for `NS(=O)(=O)c1ccc(NC(=S)NC=C2C(=O)c3ccccc3C2=O)cc1` ?
RESULT: 46.6 µM (inactive)

QUERY: So what does the record say about GI50 for CCCCCCCSCC1C(=O)C23C(O)C1CCC2C12COC3(O)C(O)C1C(C)(C)CCC2O (stereo unspecified) ?
RESULT: 15.9 µM (inactive)

QUERY: So what does the record say about GI50 for O=C(CC(C(=O)c1ccsc1)c1cccs1)c1ccccc1 (stereo unspecified) ?
RESULT: > 100 µM (inactive)

---

Test system: NCI-H23
Assay: NCI tumour cell line growth inhibition, 48 h
Active and inactive are the calls of the source. No stated cut-off is given here; in the data, active = GI50 up to about 1.1 µM and inactive = higher.
For each entry below, report its GI50 value.

QUERY: Lookup: GI50 / NCI-H23 / `Nc1cc2nc(O)c(O)nc2cc1N`
RESULT: > 100 µM (inactive)

QUERY: Lookup: GI50 / NCI-H23 / CCCC/C=C1\CCC(C)(CN(C)C)C1=O (centres undefined)
RESULT: > 100 µM (inactive)

QUERY: Lookup: GI50 / NCI-H23 / `Cc1sc(NC=C2C(=O)CC(C)(C)CC2=O)nc1-c1ccccc1`
RESULT: > 100 µM (inactive)

QUERY: Lookup: GI50 / NCI-H23 / CC(C)(C)OC(=O)NCCNC(=O)CN(CC(=O)O)C1CCCCC1N(CC(=O)O)CC(=O)O (centres undefined)
RESULT: > 100 µM (inactive)

QUERY: Lookup: GI50 / NCI-H23 / `COc1cc2c(c(C)c1O)[C@H]1COc3ccccc3[C@H]1O2`
RESULT: 13.2 µM (inactive)

QUERY: Lookup: GI50 / NCI-H23 / `O=C1OCCC[C@H]2O[C@@H](COCc3ccccc3)C[C@@H]12`
RESULT: > 100 µM (inactive)

QUERY: Lookup: GI50 / NCI-H23 / `CC(=O)Nc1ccc2cc3c(nc2n1)c1cccnc1n3S(=O)(=O)c1ccccc1`
RESULT: 10.5 µM (inactive)

QUERY: Lookup: GI50 / NCI-H23 / COC(=O)C12C34C=CC5(CCC6(C=CC1(CC3)O6)C52C(=O)OC)O4 (centres undefined)
RESULT: > 100 µM (inactive)

QUERY: Lookup: GI50 / NCI-H23 / `CC(C)(C)OC(=O)/C=C/[C@@H](CCC(=O)/C=C/[C@H](/C=C\CCCC(=O)O)NC1(c2ccccc2)c2ccccc2-c2ccccc21)O[Si](C)(C)C(C)(C)C`
RESULT: 16.3 µM (inactive)

---

Test system: KM-20L2
Assay: NCI tumour cell line growth inhibition, 48 h
Activity calls are given as the source filed them. No stated cut-off is given here; in the data, active = GI50 up to about 1.1 µM and inactive = higher.
For each entry below, report its GI50 value.

QUERY: So what does the record say about GI50 for `CCCCCN(CCCCC)C(=O)[C@H](CCC(=O)O)NC(=O)c1cc2ccccc2[nH]1` ?
RESULT: 55.3 µM (inactive)

QUERY: So what does the record say about GI50 for `Cc1nc2sccn2c1C(=O)N/N=C1\SCC(=O)N1C` ?
RESULT: > 100 µM (inactive)

QUERY: So what does the record say about GI50 for O=C1CN(c2ccccc2)C(=O)C1C(=O)Nc1ccc(Cl)c(Cl)c1 (stereo not drawn) ?
RESULT: 4.41 µM (inactive)

---

Tested on: SW-620
Test: NCI tumour cell line growth inhibition, 48 h
Activity calls are given as the source filed them. No stated cut-off is given here; in the data, active = GI50 up to about 1.1 µM and inactive = higher.
Outcome (select one): y for active, n for inactive

QUERY: Recorded test outcome, item O=C(OC[C@H]1O[C@@H](OC(=O)c2cc(O)c(O)c(O)c2)[C@H](OC(=O)c2cc(O)c(O)c(O)c2)[C@@H](OC(=O)c2cc(O)c(O)c(O)c2)[C@@H]1OC(=O)c1cc(O)c(O)c(O)c1)c1cc(O)c(O)c(O)c1 [PENTAGALLOYL GLUCOSE]
RESULT: n

QUERY: Recorded test outcome, item `CCOC(=O)c1c(C)n(CCN2CCN(C)CC2)c2ccc(OC)cc12`
RESULT: n

QUERY: Recorded test outcome, item COc1ccccc1C(O)[C@@H]1C[C@@H]2[C@H]3CC[C@@](C)([C@@H]2O1)C3(C)C (some centres undefined)
RESULT: n

QUERY: Recorded test outcome, item CCCCOC(=O)C(=O)C(CCC(=O)c1ccc(C)cc1)C(=O)C=C(C)C (centres undefined)
RESULT: n

QUERY: Recorded test outcome, item COc1ccc2c(c1)N=C1CSC(c3ccccc3Cl)N1C2 (centres undefined)
RESULT: n

QUERY: Recorded test outcome, item `C[C@]12CC[C@@H]3c4cc(OCC(F)(F)F)c(O)cc4CC[C@H]3[C@@H]1CC[C@@H]2O`
RESULT: y

QUERY: Recorded test outcome, item `CCCCOC(=O)N[C@H]1CCc2cc(OC)c(OC)c(OC)c2-c2ccc(SC)c(=O)cc21`
RESULT: y

QUERY: Recorded test outcome, item O=C1C2C3C=C4c5ccccc5N(c5ccccc5)C4(C2C(=O)N1c1ccc(Br)cc1)[C@H]1C(=O)N(c2ccc(Br)cc2)C(=O)[C@@H]31 (some centres undefined)
RESULT: n

QUERY: Recorded test outcome, item `NCS(=O)(=O)O`
RESULT: n

QUERY: Recorded test outcome, item O=C1CSC(c2cccc([N+](=O)[O-])c2)N1c1ccc(-c2ccc(-n3c(-c4ccccc4)nc4ccccc4c3=O)cc2)cc1 (centres undefined)
RESULT: n

QUERY: Recorded test outcome, item `N#Cc1c(N)nc2[nH]nc(N)c2c1-c1ccccc1`
RESULT: n

QUERY: Recorded test outcome, item `O=C1c2ccccc2C(=O)c2c(NC(=O)C3CC3)ccc(NC(=O)C3CC3)c21`
RESULT: n

QUERY: Recorded test outcome, item COc1ccc(C2C(C#N)=C(S)N(C3OC(COC(C)=O)C(OC(C)=O)C(OC(C)=O)C3OC(C)=O)C(C)=C2C(C)=O)cc1 (centres undefined)
RESULT: n

QUERY: Recorded test outcome, item `C[C@@H]1OC(=O)C[C@H]2CC(=O)N(CCc3cn(S(=O)(=O)C(F)(F)F)c4ccccc34)C[C@@H]21`
RESULT: n

QUERY: Recorded test outcome, item `CCOC(=O)/C(C#N)=C/c1ccnc2ccccc12`
RESULT: n

QUERY: Recorded test outcome, item `CCCc1nc(NC#N)nc(C(=O)Nc2ccccc2)c1CC`
RESULT: n

QUERY: Recorded test outcome, item COc1ccc(C2=Nc3c(nc(OC)[nH]c3=O)NC(c3ccccc3)C2)cc1 (centres undefined)
RESULT: n

QUERY: Recorded test outcome, item `Cc1cc2c(C(C)C)c(O)c(O)c(/C=N/c3ccccc3)c2c(O)c1-c1c(C)cc2c(C(C)C)c(O)c(O)c(/C=N/c3ccccc3)c2c1O`
RESULT: n

QUERY: Recorded test outcome, item CCCCCCCSCC1C(=O)C23C(O)C1CCC2C12COC3(O)C(O)C1C(C)(C)CCC2O (centres undefined)
RESULT: y
